# Tested System: human TAS2R1 (Homo sapiens, UniProt Q9NYW7)
# Construct: expressed in transfected cells; host or cells: HEK293T-Gα16gust44
# Sequence (Q9NYW7 1-299): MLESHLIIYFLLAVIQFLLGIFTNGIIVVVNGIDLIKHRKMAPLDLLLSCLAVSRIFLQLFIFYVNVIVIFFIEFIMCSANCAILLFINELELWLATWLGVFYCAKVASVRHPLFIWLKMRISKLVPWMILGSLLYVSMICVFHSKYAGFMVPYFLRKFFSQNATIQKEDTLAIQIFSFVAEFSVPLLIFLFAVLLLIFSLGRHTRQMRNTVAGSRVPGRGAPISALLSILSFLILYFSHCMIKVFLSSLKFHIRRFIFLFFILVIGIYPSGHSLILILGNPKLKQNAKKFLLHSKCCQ
# Assay Method Text: Calcium imaging assay (FLIPR), HEK293T-Gα16gust44 cells transfected with human TAS2R1
# Format: cell-based
# Condition Description: Time 20.781 s
Reported RLU values for a set of molecules

- Molecule: "C[C@H](CCC(=O)NCCS(=O)(=O)O)[C@H]1CC[C@H]2[C@@H]3[C@H](O)C[C@@H]4C[C@H](O)CC[C@]4(C)[C@H]3C[C@H](O)[C@]12C [Taurocholic Acid, taurocholic acid]"
  Unit Tag: "RLU"
  RLU: 38.1129
- Molecule: "C[C@H](CCC(=O)O)[C@H]1CC[C@H]2[C@@H]3CC[C@@H]4C[C@H](O)CC[C@]4(C)[C@H]3C[C@H](O)[C@]12C [Deoxycholic Acid, deoxycholic acid]"
  Unit Tag: "RLU"
  RLU: -74.4446
- Molecule: "C[C@H](CCC(=O)NCCS(=O)(=O)O)[C@H]1CC[C@H]2[C@@H]3CC[C@@H]4C[C@H](O)CC[C@]4(C)[C@H]3CC[C@]12C [Taurolithocholic Acid, taurolithocholic acid]"
  Unit Tag: "RLU"
  RLU: 27.2472
- Molecule: "C[C@H](CCC(=O)NCC(=O)O)[C@H]1CC[C@H]2[C@@H]3[C@H](O)C[C@@H]4C[C@H](O)CC[C@]4(C)[C@H]3C[C@H](O)[C@]12C [Glycocholic Acid, glycocholic acid]"
  Unit Tag: "RLU"
  RLU: -65.4734

###

Listed here: items and their measured RLU, fluorescence trace.
# Tested System: human TAS2R4 (Homo sapiens, UniProt Q9NYW5)
# Construct: expressed in transfected cells; host or cells: HEK293T-Gα16gust44
# Sequence (Q9NYW5 whole entry): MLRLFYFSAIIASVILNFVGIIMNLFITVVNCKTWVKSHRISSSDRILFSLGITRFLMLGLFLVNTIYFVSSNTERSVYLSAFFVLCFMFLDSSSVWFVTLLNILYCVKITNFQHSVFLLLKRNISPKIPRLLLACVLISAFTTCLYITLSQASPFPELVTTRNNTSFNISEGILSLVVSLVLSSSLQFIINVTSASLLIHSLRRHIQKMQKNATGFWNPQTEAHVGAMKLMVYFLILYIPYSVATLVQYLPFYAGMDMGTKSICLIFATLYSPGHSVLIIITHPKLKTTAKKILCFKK
# Assay Method Text: Calcium imaging assay (FLIPR), HEK293T-Gα16gust44 cells transfected with human TAS2R4; note: test concentration or dose not given here
# Type: cell-based
# Condition Description: Time (s) 203.547
Endpoint Label: RLU, fluorescence trace (RLU)

- Cpd Smiles: "C[C@H](CCC(=O)O)[C@H]1CC[C@H]2[C@@H]3[C@H](O)C[C@@H]4C[C@H](O)CC[C@]4(C)[C@H]3C[C@H](O)[C@]12C"
  Tested System: "human TAS2R4 (Homo sapiens, UniProt Q9NYW5)"
  Unit Tag: "RLU"
  Assay Result: 232.756
- Cpd Smiles: "C[C@H](CCC(=O)NCC(=O)O)[C@H]1CC[C@H]2[C@@H]3[C@H](O)C[C@@H]4C[C@H](O)CC[C@]4(C)[C@H]3C[C@H](O)[C@]12C"
  Tested System: "human TAS2R4 (Homo sapiens, UniProt Q9NYW5)"
  Unit Tag: "RLU"
  Assay Result: 189.795
- Cpd Smiles: "C[C@H](CCC(=O)NCCS(=O)(=O)O)[C@H]1CC[C@H]2[C@@H]3[C@H](O)C[C@@H]4C[C@H](O)CC[C@]4(C)[C@H]3C[C@H](O)[C@]12C"
  Tested System: "human TAS2R4 (Homo sapiens, UniProt Q9NYW5)"
  Unit Tag: "RLU"
  Assay Result: 318.63

###

Measured RLU by item
# Tested System: mouse Tas2r105 (Mus musculus, UniProt Q9JKT4)
# Construct: expressed in transfected cells; host or cells: HEK293T-Gα16gust44
# Sequence (Q9JKT4 whole entry): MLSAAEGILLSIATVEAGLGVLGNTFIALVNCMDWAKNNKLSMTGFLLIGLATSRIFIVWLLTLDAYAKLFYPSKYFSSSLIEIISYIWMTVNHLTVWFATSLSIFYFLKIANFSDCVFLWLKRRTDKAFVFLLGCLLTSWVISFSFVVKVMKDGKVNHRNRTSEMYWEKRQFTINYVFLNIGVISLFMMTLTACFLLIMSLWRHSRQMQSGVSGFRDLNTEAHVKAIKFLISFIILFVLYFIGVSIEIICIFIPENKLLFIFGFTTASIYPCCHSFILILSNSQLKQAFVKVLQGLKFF
# Assay Method Text: Calcium imaging assay (FLIPR), HEK293T-Gα16gust44 cells transfected with mouse Tas2r105
# Format: cell-based
# Condition Description: Time 22.781 s
# Experimental: This set of bile acids was chosen because of their commercial availability in high purities, their diversity within the class of bile acids and their previous detection and quantitation in human blood. Stock solutions were prepared in DMSO. […] Measured data were negative control corrected by subtracting the signal of the mock-transfected cells and exported to Microsoft Excel using the FLIPR software ScreenWorks 4.2. […]
Endpoint Label: RLU (RLU)

- Cpd Smiles: "C[C@H](CCC(=O)O)[C@H]1CC[C@H]2[C@@H]3CC[C@@H]4C[C@H](O)CC[C@]4(C)[C@H]3CC[C@]12C"
  Assay Result: -20.313
- Cpd Smiles: "C[C@H](CCC(=O)O)[C@H]1CC[C@H]2[C@@H]3CC[C@@H]4C[C@H](O)CC[C@]4(C)[C@H]3C[C@H](O)[C@]12C"
  Assay Result: -39.9091
- Cpd Smiles: "C[C@H](CCC(=O)O)[C@H]1CC[C@H]2[C@@H]3[C@H](O)C[C@@H]4C[C@H](O)CC[C@]4(C)[C@H]3C[C@H](O)[C@]12C"
  Assay Result: 39.5966
- Cpd Smiles: "C[C@H](CCC(=O)NCC(=O)O)[C@H]1CC[C@H]2[C@@H]3[C@H](O)C[C@@H]4C[C@H](O)CC[C@]4(C)[C@H]3C[C@H](O)[C@]12C"
  Assay Result: -4.143

###

# Tested System: human TAS2R14 (Homo sapiens, UniProt Q9NYV8)
# Construct: expressed in transfected cells; host or cells: HEK293T-Gα16gust44
# Sequence (Q9NYV8 1-317): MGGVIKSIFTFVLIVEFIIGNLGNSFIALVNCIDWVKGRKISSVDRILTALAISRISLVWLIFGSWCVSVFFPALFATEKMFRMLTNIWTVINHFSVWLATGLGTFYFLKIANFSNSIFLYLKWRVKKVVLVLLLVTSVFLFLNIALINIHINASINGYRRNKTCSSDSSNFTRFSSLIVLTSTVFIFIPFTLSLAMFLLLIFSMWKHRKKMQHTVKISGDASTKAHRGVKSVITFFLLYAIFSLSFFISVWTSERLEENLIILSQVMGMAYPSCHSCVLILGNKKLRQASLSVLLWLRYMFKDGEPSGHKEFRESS
# Assay Method Text: Calcium imaging assay (FLIPR), HEK293T-Gα16gust44 cells transfected with human TAS2R14
# Format: cell-based
# Condition Description: TAS2R14 trace; Time (s) 40.797 (Chenodeoxycholic Acid 40.781)

- Cpd Smiles: "C[C@H](CCC(=O)NCCS(=O)(=O)O)[C@H]1CC[C@H]2[C@@H]3CC[C@@H]4C[C@H](O)CC[C@]4(C)[C@H]3CC[C@]12C"
  Tested System: "human TAS2R14 (Homo sapiens, UniProt Q9NYV8)"
  RLU / RLU: 58.2474
- Cpd Smiles: "C[C@H](CCC(=O)O)[C@H]1CC[C@H]2[C@@H]3[C@H](O)C[C@@H]4C[C@H](O)CC[C@]4(C)[C@H]3CC[C@]12C"
  Tested System: "human TAS2R14 (Homo sapiens, UniProt Q9NYV8)"
  RLU / RLU: 364.7
- Cpd Smiles: "C[C@H](CCC(=O)NCC(=O)O)[C@H]1CC[C@H]2[C@@H]3[C@H](O)C[C@@H]4C[C@H](O)CC[C@]4(C)[C@H]3C[C@H](O)[C@]12C"
  Tested System: "human TAS2R14 (Homo sapiens, UniProt Q9NYV8)"
  RLU / RLU: 134.729
- Cpd Smiles: "C[C@H](CCC(=O)NCCS(=O)(=O)O)[C@H]1CC[C@H]2[C@@H]3[C@H](O)C[C@@H]4C[C@H](O)CC[C@]4(C)[C@H]3C[C@H](O)[C@]12C"
  Tested System: "human TAS2R14 (Homo sapiens, UniProt Q9NYV8)"
  RLU / RLU: 192.709
- Cpd Smiles: "C[C@H](CCC(=O)O)[C@H]1CC[C@H]2[C@@H]3[C@H](O)C[C@@H]4C[C@H](O)CC[C@]4(C)[C@H]3C[C@H](O)[C@]12C"
  Tested System: "human TAS2R14 (Homo sapiens, UniProt Q9NYV8)"
  RLU / RLU: 286.95

###

# Tested System: human TAS2R1 (Homo sapiens, UniProt Q9NYW7)
# Construct: expressed in transfected cells; host or cells: HEK293T-Gα16gust44
# Assay Method Text: Calcium imaging assay (FLIPR), HEK293T-Gα16gust44 cells transfected with human TAS2R1
# Assay type: cell-based
# Condition Description: Time 136.796 s

- Compound: "C[C@H](CCC(=O)O)[C@H]1CC[C@H]2[C@@H]3[C@H](O)C[C@@H]4C[C@H](O)CC[C@]4(C)[C@H]3CC[C@]12C [Chenodeoxycholic Acid, chenodeoxycholic acid]"
  Tested System: "human TAS2R1 (Homo sapiens, UniProt Q9NYW7)"
  RLU: "537.391 RLU"
- Compound: "C[C@H](CCC(=O)O)[C@H]1CC[C@H]2[C@@H]3[C@@H](O)C[C@@H]4C[C@H](O)CC[C@]4(C)[C@H]3CC[C@]12C [Ursodeoxycholic Acid, ursodeoxycholic acid]"
  Tested System: "human TAS2R1 (Homo sapiens, UniProt Q9NYW7)"
  RLU: "243.041 RLU"
- Compound: "C[C@H](CCC(=O)O)[C@H]1CC[C@H]2[C@@H]3[C@H](O)C[C@@H]4C[C@H](O)CC[C@]4(C)[C@H]3C[C@H](O)[C@]12C [Cholic Acid, cholic acid]"
  Tested System: "human TAS2R1 (Homo sapiens, UniProt Q9NYW7)"
  RLU: "379.68 RLU"
- Compound: "C[C@H](CCC(=O)O)[C@H]1CC[C@H]2[C@@H]3CC[C@@H]4C[C@H](O)CC[C@]4(C)[C@H]3CC[C@]12C [Lithocholic Acid, lithocholic acid]"
  Tested System: "human TAS2R1 (Homo sapiens, UniProt Q9NYW7)"
  RLU: "797.52 RLU"
